Test system: rats
Experiment: maximal electroshock test (MES), anticonvulsant activity in rats
Assay type: in vivo
Details: Rattus norvegicus, po; rats, p.o.; read-out: MES ED50 (mg/kg) p.o.
Provide the recorded ED50 for the entries that follow.
Give bare numbers, in mg/kg.

Please review the following examples before continuing.
| COMPOUND | SYSTEM TESTED | ED50 (mg/kg) |
| --- | --- | --- |
| Nc1ncnc2c1ncn2Cc1ccccc1F [Compound 16, 6-Amino-9-(2-fluorobenzyl)-9H-purine] | rats | 2.2 |
| CNc1ncnc2c1ncn2Cc1cc(F)ccc1F [Compound 15] | rats | 7 |
| Fc1cccc(F)c1Cn1cnc2c(NC3CC3)ncnc21 [Compound 12] | rats | 12.5 |
| O=C1NC(=O)C(c2ccccc2)(c2ccccc2)N1 [phenytoin (Dilantin), 5,5-diphenylhydantoin, reference compound] | rats | 20 |
| CCN(C)c1ncnc2c1ncn2Cc1ccccc1F [Compound 8] | rats | 6 |

For every listed record, write down its ED50.
1. Fc1ccccc1Cn1cnc2c(NC3CC3)ncnc21 [Compound 3]
2. CCN(CC)c1ncnc2c1ncn2Cc1ccccc1F [Compound 10]
3. CCCNc1ncnc2c1ncn2Cc1ccccc1F [Compound 9]
4. CN(C)c1ncnc2c1ncn2Cc1c(F)cccc1F [Compound 14]
5. Fc1ccccc1Cn1cnc2c(NCC3CC3)ncnc21 [Compound 6]

[7.8, 5.9, 4.6, 3.8, 6.3]

---

Assay: LD50 in the rat
Details: in vivo, po, approximate
ATTRIBUTE MEASURED: LD50

So what does the record say about LD50 for "CNc1ncnc2c1ncn2Cc1ccccc1F" ?
~1000 mg/kg
